Provenance of the data: patent US11485742B2

Molecular target: Cloned human M1 receptor (CHRM1) (Homo sapiens, UniProt P11229)
Construct: expressed in transfected cells; host or cells: HEK293
Sequence (P11229 whole entry): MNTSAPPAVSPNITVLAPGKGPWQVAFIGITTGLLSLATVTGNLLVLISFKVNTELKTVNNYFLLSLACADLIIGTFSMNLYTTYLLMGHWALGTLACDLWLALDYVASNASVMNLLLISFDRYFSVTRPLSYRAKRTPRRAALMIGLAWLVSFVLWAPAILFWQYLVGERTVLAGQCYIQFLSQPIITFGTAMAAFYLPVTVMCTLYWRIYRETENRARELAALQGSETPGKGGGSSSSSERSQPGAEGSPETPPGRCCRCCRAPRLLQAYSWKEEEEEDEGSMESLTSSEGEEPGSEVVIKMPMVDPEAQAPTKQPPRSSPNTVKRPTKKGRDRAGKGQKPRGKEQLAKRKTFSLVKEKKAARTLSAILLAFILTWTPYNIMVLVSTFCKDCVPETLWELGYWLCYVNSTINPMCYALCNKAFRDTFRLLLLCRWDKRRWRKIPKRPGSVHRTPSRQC
Assay: CHRM1 Ca++ Flux Assay (HEK293 M1 cells, agonist mode)
Format: cell-based
Conditions: Percent Activity (PA), read-out: M1 FDSS PA %
Field: Emax. Provide a value for each of the molecules that follow.
Numbers only; they are read as %.

For the molecule Fc1ccc(OC2COCOC2)c(C2CCN([C@@H]3COC4(C3)CN(c3nnco3)C4)CC2)c1 , what Emax is on record? 89

Data request, read-out Emax, for CC(C)(O)COc1ccc(F)cc1C1CCN([C@@H]2COC3(C2)CN(c2nnco2)C3)CC1 75

Entry Fc1ccc(OCC2CC3(COC3)C2)c(C2CCN([C@@H]3COC4(C3)CN(c3nnco3)C4)CC2)c1 : reported Emax = ? 53
